Target: Amine oxidase [flavin-containing] B (Homo sapiens)
Sequence (P27338 whole entry): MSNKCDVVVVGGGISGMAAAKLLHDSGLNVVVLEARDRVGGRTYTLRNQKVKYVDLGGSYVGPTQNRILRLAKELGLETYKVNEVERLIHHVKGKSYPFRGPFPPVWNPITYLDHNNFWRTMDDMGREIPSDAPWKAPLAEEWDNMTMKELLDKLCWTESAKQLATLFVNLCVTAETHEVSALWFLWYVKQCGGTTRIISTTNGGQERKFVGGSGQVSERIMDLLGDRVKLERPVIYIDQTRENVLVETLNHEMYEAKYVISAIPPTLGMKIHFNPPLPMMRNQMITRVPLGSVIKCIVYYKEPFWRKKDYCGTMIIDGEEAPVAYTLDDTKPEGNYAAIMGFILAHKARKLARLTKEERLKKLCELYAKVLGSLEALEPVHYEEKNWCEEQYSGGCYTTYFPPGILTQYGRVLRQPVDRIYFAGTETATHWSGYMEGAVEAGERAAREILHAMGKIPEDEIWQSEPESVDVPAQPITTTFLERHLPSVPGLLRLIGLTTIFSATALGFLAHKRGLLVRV
Settings: 0.5 h, read-out: INH
Description: Inhibition of human MAO-B at 1 uM preincubated with compound for 10 mins followed by substrate addition and measured after 30 mins relative to control
Would you kindly list inhibition at 1 µM for each of these compounds?
One number for each entry, in %.

Exam item: Give recorded inhibition at 1 µM with Amine oxidase [flavin-containing] B (Homo sapiens) for the following compound: NC(=O)Cc1nc2cc(C(=O)Nc3ccccc3)ccc2[nH]1
Marked response: 29.9

Exam item: Give recorded inhibition at 1 µM with Amine oxidase [flavin-containing] B (Homo sapiens) for the following compound: Cc1ccccc1COc1ccc2[nH]c(CC(N)=O)nc2c1
Marked response: 5.6

Exam item: Give recorded inhibition at 1 µM with Amine oxidase [flavin-containing] B (Homo sapiens) for the following compound: Cc1cccc(NC(=O)c2ccc3[nH]c(CC(N)=O)nc3c2)c1
Marked response: 33.7

Exam item: Give recorded inhibition at 1 µM with Amine oxidase [flavin-containing] B (Homo sapiens) for the following compound: COc1ccccc1NC(=O)c1ccc2[nH]c(CC(N)=O)nc2c1
Marked response: 24.8

Exam item: Give recorded inhibition at 1 µM with Amine oxidase [flavin-containing] B (Homo sapiens) for the following compound: NC(=O)Cc1nc2cc(C(=O)Nc3ccccc3F)ccc2[nH]1
Marked response: 44

I'm hoping you can list inhibition at 1 µM for every compound here, please.
1. NC(=O)Cc1nc2cc(OCc3ccccc3Cl)ccc2[nH]1
2. NC(=O)Cc1nc2cc(OCc3ccccc3)ccc2[nH]1
3. COc1ccc2[nH]c(CC(N)=O)nc2c1
4. NC(=O)Cc1nc2cc(C(=O)Nc3ccc(F)cc3)ccc2[nH]1
5. Cc1cccc(COc2ccc3[nH]c(CC(N)=O)nc3c2)c1
6. NC(=O)Cc1nc2cc(C(=O)Nc3cccc(Cl)c3)ccc2[nH]1
7. COc1ccc(NC(=O)c2ccc3[nH]c(CC(N)=O)nc3c2)cc1
8. Cc1ccccc1NC(=O)c1ccc2[nH]c(CC(N)=O)nc2c1

Marked response:
8.15
14.3
0.93
44.4
52.7
47.6
28.5
31.8

Cited source for all entries: ChEMBL document CHEMBL5550170
